Data origin: ChEMBL document CHEMBL2073912

# Assay System: ATP-dependent translocase ABCB1 (Homo sapiens, UniProt P08183)
# Sequence (P08183 whole entry): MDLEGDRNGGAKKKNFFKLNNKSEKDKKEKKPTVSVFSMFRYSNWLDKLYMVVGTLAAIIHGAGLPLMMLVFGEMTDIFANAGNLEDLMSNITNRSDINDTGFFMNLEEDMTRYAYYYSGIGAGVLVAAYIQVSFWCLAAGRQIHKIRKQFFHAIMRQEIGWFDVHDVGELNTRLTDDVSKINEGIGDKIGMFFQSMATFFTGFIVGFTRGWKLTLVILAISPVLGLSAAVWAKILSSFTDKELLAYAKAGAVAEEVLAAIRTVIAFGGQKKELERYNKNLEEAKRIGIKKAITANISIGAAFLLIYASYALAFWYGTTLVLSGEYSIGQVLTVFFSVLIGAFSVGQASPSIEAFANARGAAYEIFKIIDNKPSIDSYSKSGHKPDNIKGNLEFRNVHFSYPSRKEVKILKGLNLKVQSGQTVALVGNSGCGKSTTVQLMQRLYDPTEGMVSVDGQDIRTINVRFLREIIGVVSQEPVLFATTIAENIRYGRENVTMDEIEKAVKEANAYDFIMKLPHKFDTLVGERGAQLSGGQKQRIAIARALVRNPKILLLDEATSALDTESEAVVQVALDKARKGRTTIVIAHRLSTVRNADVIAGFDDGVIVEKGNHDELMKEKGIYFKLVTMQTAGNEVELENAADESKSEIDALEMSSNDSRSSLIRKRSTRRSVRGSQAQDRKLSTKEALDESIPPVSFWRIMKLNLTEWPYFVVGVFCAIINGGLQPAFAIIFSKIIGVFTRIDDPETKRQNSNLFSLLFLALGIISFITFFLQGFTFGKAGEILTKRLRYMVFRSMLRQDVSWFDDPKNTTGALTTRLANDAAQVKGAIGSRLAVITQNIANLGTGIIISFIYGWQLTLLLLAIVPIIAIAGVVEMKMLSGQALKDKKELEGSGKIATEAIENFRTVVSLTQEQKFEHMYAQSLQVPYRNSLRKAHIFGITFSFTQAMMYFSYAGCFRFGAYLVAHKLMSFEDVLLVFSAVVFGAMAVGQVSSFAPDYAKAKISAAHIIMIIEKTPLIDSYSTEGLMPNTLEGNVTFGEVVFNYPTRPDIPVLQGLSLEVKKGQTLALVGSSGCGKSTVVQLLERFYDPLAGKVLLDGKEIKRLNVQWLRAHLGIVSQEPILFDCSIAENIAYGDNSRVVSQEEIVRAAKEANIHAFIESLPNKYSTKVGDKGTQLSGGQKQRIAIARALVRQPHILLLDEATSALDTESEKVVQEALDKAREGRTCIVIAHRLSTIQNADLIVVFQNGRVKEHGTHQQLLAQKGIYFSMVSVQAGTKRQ
# Assay Summary: TP_TRANSPORTER: increase in bodipy-FL-prazosin intracellular accumulation in MDR1-expressing NIH-3T3 cells
# Type: functional, cell-based
# Experimental Parameters: mouse, nih3t3
Observation Type: Activity

Example cases with answers are listed next.
Molecule	Activity
C/C(=C\CCC#C/C=C/C(C)C(O)/C(C)=C/CCc1ccc2ccccc2c1)C(=O)NCCOCCOCCOCCOCCOCCNC(=O)/C(C)=C/CCC#C/C=C/C(C)C(O)/C(C)=C/CCc1cccc2ccccc12 (stereo unspecified)	inhibitor [+]
C/C(=C\CCC#C/C=C/C(C)C(O)/C(C)=C/CCc1cccc2ccccc12)C(=O)NCCOCCOCNC(=O)/C(C)=C/CCC#C/C=C/C(C)C(O)/C(C)=C/CCc1ccc2ccccc2c1 (stereo unspecified)	is not an inhibitor [-]
C/C(=C\CCC#C/C=C/C(C)C(O)/C(C)=C/CCc1cccc2ccccc12)C(=O)NCCOCCOCCOCCOCCOCCO (stereo unspecified) [STIPIAMIDE MONOMER]	is not an inhibitor [-]
C/C(=C\CCC#C/C=C/C(C)C(O)/C(C)=C/CCc1ccc2ccccc2c1)C(=O)NCNC(=O)/C(C)=C/CCC#C/C=C/C(C)C(O)/C(C)=C/CCc1cccc2ccccc12 (stereo unspecified)	is not an inhibitor [-]
C/C(=C\CCC#C/C=C/C(C)C(O)/C(C)=C/CCc1cccc2ccccc12)C(=O)NCCOCCOCCOCCOCCOCCOCCOCCOCNC(=O)/C(C)=C/CCC#C/C=C/C(C)C(O)/C(C)=C/CCc1ccc2ccccc2c1 (stereo unspecified)	inhibitor [+]

input: Lookup: Activity / ATP-dependent translocase ABCB1 (Homo sapiens, UniProt P08183) / C/C(=C\CCC#C/C=C/C(C)C(O)/C(C)=C/CCc1cccc2ccccc12)C(=O)NCCOCCOCCOCCOCCOCCOCCOCCOCCOCCOCCOCCOCNC(=O)/C(C)=C/CCC#C/C=C/C(C)C(O)/C(C)=C/CCc1ccc2ccccc2c1 (stereo unspecified)
output: inhibitor [+]
